Assayed target: Mast cell carboxypeptidase A (Homo sapiens)
Sequence (P15088 whole entry): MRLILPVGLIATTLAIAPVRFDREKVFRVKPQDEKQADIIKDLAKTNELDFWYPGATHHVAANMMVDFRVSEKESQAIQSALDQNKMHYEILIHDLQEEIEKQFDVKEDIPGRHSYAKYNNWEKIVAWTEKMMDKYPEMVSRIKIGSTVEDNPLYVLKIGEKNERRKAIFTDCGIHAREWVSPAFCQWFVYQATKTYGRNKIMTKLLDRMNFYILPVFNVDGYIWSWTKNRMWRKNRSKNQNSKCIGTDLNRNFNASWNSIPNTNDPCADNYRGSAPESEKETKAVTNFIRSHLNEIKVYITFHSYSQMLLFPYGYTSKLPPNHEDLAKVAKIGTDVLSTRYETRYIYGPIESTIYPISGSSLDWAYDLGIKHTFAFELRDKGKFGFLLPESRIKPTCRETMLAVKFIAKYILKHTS
Peptide text beside a SMILES is read from it.
Observation type: Kd (µM)
One number for each entry, in µM.

Q) Given the molecule NCCCC[C@H](NC(=O)CN)C(=O)O (H-Gly-Lys-OH) , write its reported Kd.
A) 129

###

Assayed target: Prothrombin (Homo sapiens)
Observation type: pKd
Answers are plain numbers, as −log10 of the molar value.

Q) Identify the reported pKd for the following entry. "N=C(N)NCCC[C@H](NC(=O)[C@@H]1CCCN1C(=O)[C@@H](N)Cc1ccccc1)C(=O)O"
A) 6.24
